target: UniProtKB Q9H244; test: Binding affinity to human recombinant P2Y12 receptor expressed on CHO cell membrane; assay type: cell membranes
Measured log10 Ki of individual entries
Each number you see is log10 of Ki, and the unit inside the log is µM.

1. CCc1cc2c(N3CCN(C(=O)COc4ccccc4)CC3)nc(NC(=O)NCCC(=O)O)nc2s1 :: -0.27
2. CCc1cc2c(N3CCN(C(=O)Cc4ccc(F)c(F)c4)CC3)nc(NC(=O)NCCC(=O)O)nc2s1 :: -1.17

Reported log10 Ki of "CCc1cc2c(N3CCN(C(=O)Cc4ccccc4)CC3)ncnc2s1" : -0.18

Reported log10 Ki of "CCc1cc2c(N3CCN(C(=O)c4ccccc4)CC3)ncnc2s1" : 0.64

====

species: Homo sapiens; experiment: Ratio of Ki for human recombinant P2Y12 in presence of HSA and AGP to Ki for human recombinant P2Y12
Measured Ratio Ki of individual entries
Lab note: record the figure alone, no unit after it.

1) CCc1cc2c(N3CCN(C(=O)c4ccc(-c5ccccc5)cc4)CC3)nc(N3CCNCC3)nc2s1 :: 1
2) CCc1cc2c(N3CCN(C(=O)c4ccc(-c5ccccc5)cc4)CC3)nc(NCCO)nc2s1 :: 4.4
3) CCc1cc2c(N3CCN(C(=O)c4ccc(-c5ccccc5)cc4)CC3)nc(N3[C@@H](C(N)=O)CC[C@H]3C(N)=O)nc2s1 :: 5

Turning to the following compound.
Reported Ratio Ki of "CCc1cc2c(N3CCN(C(=O)c4ccc(-c5ccccc5)cc4)CC3)nc(NC[C@@H](O)CO)nc2s1" : 4

====

species on record: Homo sapiens; assay: Ratio of Ki for human recombinant P2Y12 in presence of HSA and AGP to Ki for human recombinant P2Y12
Label true (1) when Ratio Ki >= 6; otherwise false (0).

Previously resolved entries follow.
1. CCc1cc2c(N3CCN(C(=O)c4ccc(-c5ccccc5)cc4)CC3)nc(N3CCC(N)CC3)nc2s1 :: false (0)
2. CCc1cc2c(N3CCN(C(=O)c4ccc(-c5ccccc5)cc4)CC3)nc(N3CC(O)C3)nc2s1 :: true (1)
3. CCc1cc2c(N3CCN(C(=O)c4ccc(-c5ccccc5)cc4)CC3)nc(NC(=O)NCCC(=O)O)nc2s1 :: false (0)

Task: Record CCc1cc2c(N3CCN(C(=O)c4ccc(-c5ccccc5)cc4)CC3)nc(N3CCC(O)C3)nc2s1 (stereo not drawn) ; criterion: Ratio Ki no lower than 6. Met?
Output: true (1)

Task: Record "CCc1cc2c(N3CCN(C(=O)c4ccc(-c5ccccc5)cn4)CC3)nc(NC(=O)NCCC(=O)O)nc2s1" ; criterion: Ratio Ki no lower than 6. Met?
Output: false (0)

Task: Record "CCc1cc2c(N3CCN(C(=O)COc4cccc(OC)c4)CC3)nc(NC(=O)NCCC(=O)O)nc2s1" ; criterion: Ratio Ki no lower than 6. Met?
Output: false (0)

Task: Record "CCc1cc2c(N3CCN(C(=O)COc4ccccc4)CC3)nc(NC(=O)NCCC(=O)O)nc2s1" ; criterion: Ratio Ki no lower than 6. Met?
Output: false (0)

====

biological target: P2Y purinoceptor 12 (Homo sapiens, UniProt Q9H244); test: Binding affinity to human recombinant P2Y12 receptor expressed in CHO cell membrane in presence of HSA and human AGP; type: cell membranes
Sequence (Q9H244 whole entry): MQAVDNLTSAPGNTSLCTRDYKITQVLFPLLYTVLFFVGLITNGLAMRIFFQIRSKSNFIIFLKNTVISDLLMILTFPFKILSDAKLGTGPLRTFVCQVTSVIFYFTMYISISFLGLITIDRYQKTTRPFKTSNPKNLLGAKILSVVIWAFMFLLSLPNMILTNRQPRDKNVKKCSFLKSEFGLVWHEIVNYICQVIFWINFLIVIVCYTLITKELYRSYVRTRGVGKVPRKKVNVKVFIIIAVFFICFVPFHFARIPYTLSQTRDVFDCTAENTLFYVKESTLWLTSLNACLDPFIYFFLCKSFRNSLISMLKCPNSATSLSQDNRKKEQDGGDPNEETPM
measured-parameter: log10(Ki) (log10 of the value in nM)
Each number you see is log10 of Ki, and the unit inside the log is nM.

1. CCc1cc2c(N3CCN(C(=O)c4ccc(-c5ccccc5)cc4)CC3)nc(NCCCO)nc2s1 :: 2.64
2. CCc1cc2c(N3CCN(C(=O)c4ccc(-c5ccccc5)cc4)CC3)nc(N3CCCC(C(N)=O)C3)nc2s1 (stereo not drawn) :: 2.31
3. CCc1cc2c(N3CCN(C(=O)c4ccc(-c5ccccc5)cc4)CC3)nc(NCCC(=O)O)nc2s1 :: 2.09

Reported log10(Ki) of "CCc1cc2c(N3CCN(C(=O)Cc4ccc(F)c(F)c4)CC3)nc(NC(=O)NCCC(=O)O)nc2s1" : 2.15

Reported log10(Ki) of "CCc1cc2c(N3CCN(C(=O)c4ccc(-c5ccccc5)cn4)CC3)nc(NC(=O)NCCC(=O)O)nc2s1" : 2.21

Reported log10(Ki) of "CCc1cc2c(N3CCN(C(=O)c4ccc(-c5ccccc5)cc4)CC3)nc(NC(=O)NCCC(=O)O)nc2s1" : 1.00

Reported log10(Ki) of "CCc1cc2c(N3CCN(C(C)=O)CC3)nc(NC(=O)NCCC(=O)O)nc2s1" : 2.58

Reported log10(Ki) of "CCc1cc2c(N3CCN(C(=O)CCOc4ccccc4)CC3)nc(NC(=O)NCCC(=O)O)nc2s1" : 2.89

Reported log10(Ki) of "CCc1cc2c(N3CCN(C(=O)c4ccc(-c5ccccc5)cc4)CC3)nc(N3C[C@@H](O)C[C@H]3C(=O)O)nc2s1" : 1.49

Reported log10(Ki) of "CCc1cc2c(N3CCN(C(=O)c4ccc(-c5ccccc5)cc4)CC3)nc(NC[C@@H](O)CO)nc2s1" : 1.88

Reported log10(Ki) of "CCc1cc2c(N3CCN(C(=O)c4ccc(-c5ccccc5)cc4)CC3)nc(N3[C@@H](C(N)=O)CC[C@H]3C(N)=O)nc2s1" : 1.32

Reported log10(Ki) of "CCc1cc2c(N3CCN(C(=O)c4ccc(-c5ccccc5)cc4)CC3)nc(N3CCC(N)CC3)nc2s1" : 2.51

Reported log10(Ki) of "CCc1cc2c(N3CCN(C(=O)c4ccc(-c5ccccc5)cc4)CC3)nc(NCCO)nc2s1" : 2.21

Reported log10(Ki) of "CCc1cc2c(N3CCN(C(=O)COc4ccccc4)CC3)nc(NC(=O)NCCC(=O)O)nc2s1" : 2.77

Reported log10(Ki) of CCc1cc2c(N3CCN(C(=O)c4ccc(-c5ccccc5)cc4)CC3)nc(N3CCC(O)C3)nc2s1 (stereo not drawn) : 2.38

Reported log10(Ki) of "CCc1cc2c(N3CCN(C(=O)CC(F)(F)F)CC3)nc(NC(=O)NCCC(=O)O)nc2s1" : 2.24

Reported log10(Ki) of "CCc1cc2c(N3CCN(C(=O)c4ccc(-c5ccccc5)cc4)CC3)nc(N3CC(O)C3)nc2s1" : 2.47

Reported log10(Ki) of "CCc1cc2c(N3CCN(C(=O)COc4cccc(OC)c4)CC3)nc(NC(=O)NCCC(=O)O)nc2s1" : 2.65
